Provenance of the data: patent US20210253725A1

- measured_target: T1, CD27 expressed on the cell surface of HT1080_CD27 cells (human, UniProt P26842 20-260); also: test concentration or dose not given here
- T1 sequence (looked up): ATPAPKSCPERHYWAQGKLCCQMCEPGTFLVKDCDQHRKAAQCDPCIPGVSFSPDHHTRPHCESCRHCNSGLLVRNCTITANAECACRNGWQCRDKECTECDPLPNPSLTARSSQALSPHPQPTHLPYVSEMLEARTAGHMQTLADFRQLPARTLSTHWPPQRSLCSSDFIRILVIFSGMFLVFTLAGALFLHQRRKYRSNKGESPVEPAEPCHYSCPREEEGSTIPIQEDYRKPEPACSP
- measurement_protocol: cell-based or functional assay
reported_property: Functional assay Cross-linked by F(ab′)2 fragment IL-8 (abs. corr.)

binder: P018.S.10.A.C02 (antibody, V domains shown, V regions on human Ig constant parts; also called AB27_171) VH: QSVEESGGRLVTPGTPLTLTCTVSGIDLSNYAMSWVRQTPGKGLEWIGAIGIGGNTYYASWAKGRFTISRTSTMVDLKVASPTPEDTATYFCARHAGAGVVNWLDLWGQGTLVTVSS VL: DVVMTQTPASVSEPVGGTVTIKCQASQSIGSNLAWYQQKPGQPPKLLIYAASDLASGVPSRFSGSGSGTEFTLTISGVQSDDAATFYCQTYGSGSFSSFNLFGGGTEVVVK
unit_of_measure: abs. corr.
quantitative_readout: 2.28

binder: P018.S.08.A.F01 (antibody, V domains shown, V regions on human Ig constant parts; also called AB27_140) VH: QSVEESGGRLVTPGTPLTLTCTVSGSDISGYALGWVRQAPGKGLEYIGVIAADGNAYYASWAKGRFTISRTSTTVDLKMTSLTTEDTATYFCARGYSSGWGTYGYFDLWGQGTLVTVSS VL: DIVMTQTPASVSAAVGGTVTIKCQASEDIYSYLAWYQQKPGQPPKLLIYRASTLESGVPSRFKGSGSGTQFTLTISDLESADAATYYCQSYYYSHSTTYSNVFGGGTEVVVK
unit_of_measure: abs. corr.
quantitative_readout: 1.11

binder: P018.S.03.A.D04 (antibody, V domains shown, V regions on human Ig constant parts; also called AB27_49) VH: QEHLEESGGGLVQPGGTLTLTCKASGIDFSSSYYMCWVRQAPGKGLERLACTYNRDGSTYYASWAKGRFTISKTSSTTVTLQMTSLTVADTATYFCARDDGYPGSGYVLNLWGPGTLVTVSS VL: DVVMTQTPASVEAAVGGTVTIRCQASQSVSNYFSWYQQKPGQPPKLLIYGASNLESGVPSRFKGSGSGTEFTLTISGVQSDDAATYYCQGGYYSSNTDNNSFGGGTEVVVK
unit_of_measure: abs. corr.
quantitative_readout: 1.23

binder: P018.S.05.A.B06 (antibody, V domains shown, V regions on human Ig constant parts; also called AB27_84) VH: QSVEESGGRLVTPGTPLTLTCTVSGFSLNTYVMSWVRQAPGKGLEWIGYIDYGGAPYYASWAKGRFTISKTSTTVELKITSPTIEDTATYFCARGGYGGYVLVTVLWGPGTLVTVSS VL: DVVMTQTPASVSEPVGGTVTIKCQASQNIYSSLAWYQQKPGQPPKLLIYQASTLASEVPSRFKGSGSGTEFTLTINDLESADAATYYCQTYYGGSTYGNGFGGGTEVVVE
unit_of_measure: abs. corr.
quantitative_readout: 1.7

binder: P018.S.06.A.A05 (antibody, V domains shown, V regions on human Ig constant parts; also called AB27_97) VH: QSLEESGGRLVTPGTPLTLTCTVSGIDLSSYAMGWVRQAPGKGLELIGLIYASNRTHYATWAKGRFTISKSSTTVDLKATSLTTEDTATYFCGRYGRGSGGYYYGMDLWGPGTLVTVSS VL: DVVMTQTPASVEAAVGGTVTIKCQASQSGDNYLSWYQQKSGQPPKLLIYLASTLASGVPSRFRGSRSGTEYTLTISDLESADAATYYCQNYCAGSGVCVGVAFGGGTEVVVK
unit_of_measure: abs. corr.
quantitative_readout: 1.09

binder: P018.S.09.A.F06 (antibody, V domains shown, V regions on human Ig constant parts; also called AB27_158) VH: QSVEESGGRLVTPGGSLTLTCSVSGIDLSSYAMNWVRQAPGKGLEWIGIISTGGSTYYANWAKGRFTISKTSTTVDLKITSPTTEDTATYICARDVGGTTVPYYFDLWGPGTLVTVSS VL: AYDMTQTPASMEVAVGGTVTIKCQASESISSWLAWYQQKPGQPPKPLIYEASRLASGVPSRFKGSGSGTEFTLTISGVESADAATYYCQQGYGSSDVHNIFGGGTEVVVK
unit_of_measure: abs. corr.
quantitative_readout: 2.03

binder: P018.S.10.A.F04 (antibody, V domains shown, V regions on human Ig constant parts; also called AB27_180) VH: QSVEESGGRLVTPGTPLTLTCTASGFYLSSHYMSWVRQAPGKGLEWIGIIYATGIASYANWAKGRFTISKTSTTVSLKMTSPTTEDTATYFCARYDSQDYYGYGNLWGPGTLVTVSS VL: AYDMTQTPASVEVAVGGTVTIKCQASQNIYNNLAWYQQKPGQRPKLLIYRASTLASGVSSQFKGSGSGTEYTLTISGVESADAATYYCQQGYSVHDVYNTFGGGTEVVVK
unit_of_measure: abs. corr.
quantitative_readout: 2.32

binder: P018.S.06.A.H05 (antibody, V domains shown, V regions on human Ig constant parts; also called AB27_112) VH: QSLEESGGDLVQPEGSLTLTCKASGFDFSSTYWICWVRQAPGKGLEWIGCIDDSYAYTYYASWAKGRFTISKPSSTTVTLQVTSLTVADTATYFCARDGYPGYGVGSFNLWGPGTLVTVSS VL: AIVMTQTPSSKSVPVGDTVTINCQASESVYSNNRLAWFQQKPGQPPKLLIYLASTLASGVPSRFKGSGSGTQFTLTISDVVSDDAATYYCAGYKSYSDDGTGFGGGTEVVVK
unit_of_measure: abs. corr.
quantitative_readout: 1.56

binder: P018.S.09.A.E02 (antibody, V domains shown, V regions on human Ig constant parts; also called AB27_153) VH: QSLEESGGRLVTPGTPLTLTCTASGFTISSHHMTWVRQAPGEGLEWLGVIFPSGHTYYTSWAKGRFTISRTSTTVDLKMASLTIEDTATYFCVRDVGYFTLWGQGTLVTVSS VL: AQVLTQTPSPVSAAVGGTVTISCQSSESVGGNNWLAWYQQKLGQPPKLLIYGASTLASGVPSRFSGSGSGTQFTLTISEVQSDDAATYYCQGYYSDVTNAFGGGTEVVVE
unit_of_measure: abs. corr.
quantitative_readout: 1.61

binder: P018.S.02.A.B01 (antibody, V domains shown, V regions on human Ig constant parts; also called AB27_29) VH: QSVEESGGRLVTPGTPLTLTCTVSGMDLSSYSMSWVRQAPGEGLEYIGFIGSSGGTYYASWAKGRFTISRTSTTVDLNITSPTTEDTATYFCARMLAGVYTRLDLWGQGTLVTVSS VL: AQVLTQTPSSVSAAVGGTVTINCQASQSISSSYCSWYQQKPGQPPKLLIYKASTLASGVPSRFKGSGSGTQFTLTISDVQSDDAATYYCAGDFIASSGNAFGGGTEVVVK
unit_of_measure: abs. corr.
quantitative_readout: 1.42
